Origin of measurements: BigSolDB 2.1

- conditionSet: in ethanol, 303.15 K
measuredProperty: solubility (mole fraction)
# output: bare number, no unit

Prompt line: Item Cc1n[nH]c(=S)s1 : provide solubility (mole fraction)
Response line: 0.0219

###

- conditionSet: in n-butanol, 298.15 K
measuredProperty: solubility (mole fraction)
# output: bare number, no unit

Prompt line: Item Cc1n[nH]c(=S)s1 : provide solubility (mole fraction)
Response line: 0.0136

###

- conditionSet: in n-pentyl acetate, 303.15 K
measuredProperty: solubility (mole fraction)
# output: bare number, no unit

Prompt line: Item Cc1n[nH]c(=S)s1 : provide solubility (mole fraction)
Response line: 0.0203

###

- conditionSet: in ethyl acetate, 293.15 K
measuredProperty: solubility (mole fraction)
# output: bare number, no unit

Prompt line: Item Cc1n[nH]c(=S)s1 : provide solubility (mole fraction)
Response line: 0.0197
